# Tested on: HMEC-1 (human microvascular endothelial cells)
# test_protocol: Cell proliferation assay (MTT)
# Assay type: cell-based
# conditions_used: HMEC-1, 48 h, 2 days incubation, average ± SD of three experiments
Mark each entry y if its IC50 sits below 9 µM, and n for all others.

>  <compound>
COc1ccc(CCc2cccc(NC(=O)Nc3ccccc3OC)c2)cc1

>  <assigned_category>
n

$$$$

# input Does this compound meet the criterion IC50 < 9 µM? "COc1ccc(/C=C\c2cccc(NC(=O)Nc3ccccc3Br)c2)cc1"
# output n

# input Also need CNC(=O)c1cc(Oc2ccc(NC(=O)Nc3ccc(Cl)c(C(F)(F)F)c3)cc2)ccn1 [Sorafenib, sorafenib, reference compound] , thanks.
# output n

# input Also need "COc1ccc(/C=C/c2cccc(NC(=O)Nc3cccc(Br)c3)c2)cc1" , thanks.
# output y

# input Also need "COc1ccc(CCc2cccc(NC(=O)Nc3cccc(OC)c3)c2)cc1" , thanks.
# output y

# input Also need "COc1ccc(CCc2cccc(NC(=O)Nc3cccc(Br)c3)c2)cc1" , thanks.
# output y
